Hi there, I'd appreciate the recorded pD2 for every entry that follows.
// return a plain number; no unit text

Enter recorded pD2 with UniProt Q8K4Z4 for COc1cc(CC2c3cc(O)c(O)cc3CCN2CCO)cc(OC)c1OC (stereo not drawn) here. 5.73

Provide pD2, recorded with UniProt Q8K4Z4, of COc1cc(CC2c3cc(O)c(O)cc3CCN2CCCl)cc(OC)c1OC (stereo not drawn) 5.34

GET pD2 | system: UniProt Q8K4Z4 | item: `COc1cc(C[C@@H]2NCCc3cc(O)c(O)cc32)cc(OC)c1OC` 7.23

State pD2 on UniProt Q8K4Z4. Entry: COc1cc(CC2NCCc3cc(O)c(O)cc32)cc(OC)c1OC (stereo not drawn) 6.96

Find the measured pD2 of COc1cc(CC2c3cc4c(cc3CCN2CCCl)OS(=O)O4)cc(OC)c1OC (stereo not drawn) with UniProt Q8K4Z4 as test system. 5.58

// fetch pD2 for COc1cc(CC2c3cc(O)c(O)cc3CCN2Cc2ccccc2)cc(OC)c1OC (stereo not drawn) ; system: UniProt Q8K4Z4 5.34

Report value only: pD2, UniProt Q8K4Z4, COc1cc(CC2c3cc(O)c(O)cc3CCN2C)cc(OC)c1OC (stereo not drawn) 6.05

Output reported pD2 of the molecule `COc1cc(C[C@H]2NCCc3cc(O)c(O)cc32)cc(OC)c1OC` on UniProt Q8K4Z4. 5.63

Values were extracted from ChEMBL document CHEMBL1123361.
